Tested on: PBMC
Test: Cytotoxicity against human PBMC at 2 times IC50 concentration after 48 hrs by MTT assay
Format: cell-based
property_label: Activity (%)
Write the number in % without appending the unit.

Problem: Which measured Activity belongs to COC(=O)C(CCSC)NC(=O)/C=C/C=C/c1ccc2c(c1)OCO2 (stereo not given) , tested on PBMC?
Solution: 7.5

Problem: Which measured Activity belongs to O=C(/C=C/C=C/c1ccc2c(c1)OCO2)NC(Cc1ccc(O)cc1)C(=O)O (stereo not given) , tested on PBMC?
Solution: 6

Problem: Which measured Activity belongs to O=C(/C=C/C=C/c1ccc2c(c1)OCO2)NC(Cc1ccccc1)C(=O)O (stereo not given) , tested on PBMC?
Solution: 8.5

Problem: Which measured Activity belongs to CCCCCCCCCCCCCCCCOP(=O)([O-])OCC[N+](C)(C)C [MILTEFOSINE] , tested on PBMC?
Solution: 35

Problem: Which measured Activity belongs to O=C(O)/C=C/C=C/c1ccc2c(c1)OCO2 [PIPERIC ACID] , tested on PBMC?
Solution: 8

###

System: Leishmania donovani
Experiment: Antileishmanial activity against Leishmania donovani promastigotes after 48 hrs by MTT assay
Format: functional, organism-based
Kindly state pIC50 for each of the entries shown.
The scale used: pIC50 is minus the common logarithm of the concentration in molar units.

Problem: Fill in: pIC50 of COC(=O)[C@@H](N)Cc1ccc(O)cc1 [TYROSINE METHYL ESTER] is ___
Solution: 2.68

Problem: Fill in: pIC50 of COC(=O)C(CCSC)NC(=O)CCCCc1ccc2c(c1)OCO2 (configuration not stated) is ___
Solution: 3.22

Problem: Fill in: pIC50 of COC(=O)C(Cc1ccc(O)cc1)NC(=O)/C=C/C=C/c1ccc2c(c1)OCO2 (configuration not stated) is ___
Solution: 3.10

Problem: Fill in: pIC50 of O=C(/C=C/C=C/c1ccc2c(c1)OCO2)NC(Cc1c[nH]c2ccccc12)C(=O)O (configuration not stated) is ___
Solution: 2.99

Problem: Fill in: pIC50 of COC(=O)C(Cc1ccccc1)NC(=O)/C=C/C=C/c1ccc2c(c1)OCO2 (configuration not stated) is ___
Solution: 3.08

Problem: Fill in: pIC50 of O=C(/C=C/C=C/c1ccc2c(c1)OCO2)NC(Cc1ccccc1)C(=O)O (configuration not stated) is ___
Solution: 3.03

Problem: Fill in: pIC50 of COC(=O)C(NC(=O)/C=C/C=C/c1ccc2c(c1)OCO2)C(C)C (configuration not stated) is ___
Solution: 3.06

Problem: Fill in: pIC50 of COC(=O)C(Cc1ccccc1)NC(=O)CCCCc1ccc2c(c1)OCO2 (configuration not stated) is ___
Solution: 3.17

Problem: Fill in: pIC50 of COC(=O)C(CCSC)NC(=O)/C=C/C=C/c1ccc2c(c1)OCO2 (configuration not stated) is ___
Solution: 3.08

Problem: Fill in: pIC50 of COC(=O)[C@@H](N)CCSC is ___
Solution: 2.71

Problem: Fill in: pIC50 of O=C(O)/C=C/C=C/c1ccc2c(c1)OCO2 [PIPERIC ACID] is ___
Solution: 2.76

Problem: Fill in: pIC50 of CCCCCCCCCCCCCCCCOP(=O)([O-])OCC[N+](C)(C)C [MILTEFOSINE] is ___
Solution: 4.48

Data provenance: ChEMBL document CHEMBL1208686
